Measured IC50 values are reported for all entries that follow.
Target: SHP2 (Homo sapiens)
Sequence (Q06124 1-593): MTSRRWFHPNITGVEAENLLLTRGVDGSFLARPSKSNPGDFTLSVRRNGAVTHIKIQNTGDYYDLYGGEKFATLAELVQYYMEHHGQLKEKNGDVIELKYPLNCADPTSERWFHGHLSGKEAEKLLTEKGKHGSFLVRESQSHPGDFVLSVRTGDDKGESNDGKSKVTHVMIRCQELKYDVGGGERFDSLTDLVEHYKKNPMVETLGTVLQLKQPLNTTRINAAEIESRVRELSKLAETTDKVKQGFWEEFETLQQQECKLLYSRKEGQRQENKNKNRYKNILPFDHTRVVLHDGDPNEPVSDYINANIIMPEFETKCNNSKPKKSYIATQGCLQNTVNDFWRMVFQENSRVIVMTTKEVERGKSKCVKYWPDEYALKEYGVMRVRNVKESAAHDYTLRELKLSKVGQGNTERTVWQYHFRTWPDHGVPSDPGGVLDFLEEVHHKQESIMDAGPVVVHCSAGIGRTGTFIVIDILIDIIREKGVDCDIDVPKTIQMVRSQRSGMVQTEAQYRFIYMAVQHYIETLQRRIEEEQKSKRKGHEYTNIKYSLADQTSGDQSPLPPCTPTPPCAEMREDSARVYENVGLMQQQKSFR
Test: Phosphatase assays (IC50), DiFMUP substrate
Write the number in nM without appending the unit.

Nc1nc(N2CCC3(CC2)Cc2ncsc2[C@H]3N)cnc1Sc1ccnc(N)c1Cl: 3
Nc1nc(N2CCC3(CC2)Cc2nc(Cl)ccc2[C@H]3N)cnc1Sc1ccnc(N)c1Cl: 7
COc1ccc2c(c1)[C@@H](N)C1(CCN(c3cnc(Sc4ccnc(N)c4Cl)c(N)n3)CC1)C2: 6

IN: Quick check: IC50 of Nc1nc(N2CCC3(CC2)Cc2ncccc2[C@H]3N)cnc1Sc1ccncc1F ?
OUT: 9
